# ASSAY COMMENT: Solubility in toluene
# Type: physicochemical
# CONDITION CONTEXT: toluene; soluble in an amount of ... or more
PROPERTY LABEL: Solubility (toluene)

For orientation, consider the following solved cases.
MOLECULE	Solubility (toluene)
CCCCCCCCC1(CCCCCCCC)c2cc(N(c3ccccc3)c3ccc(-c4ccc(N(c5ccccc5)c5ccc6c(c5)C(C)(C)c5ccccc5-6)cc4)cc3)ccc2-c2ccc(N(c3ccccc3)c3ccc(-c4ccc(N(c5ccccc5)c5ccc6c(c5)C(C)(C)c5ccccc5-6)cc4)cc3)cc21	≥ 1 wt %
CC1(C)c2ccccc2-c2ccc(N(c3ccccc3)c3ccc(-c4ccc(N(c5ccccc5)c5ccc(-c6cccc(-c7ccc(N(c8ccccc8)c8ccc(-c9ccc(N(c%10ccccc%10)c%10ccc%11c(c%10)C(C)(C)c%10ccccc%10-%11)cc9)cc8)cc7)c6)cc5)cc4)cc3)cc21	≥ 1 wt %
CCC(C)c1ccc(N(c2ccc(-c3ccc(-c4cccc(-c5ccc(-c6ccc(N(c7ccc(-c8ccc(N(c9ccccc9)c9ccccc9)cc8)cc7)c7ccc(C(C)CC)cc7)cc6)cc5)c4)cc3)cc2)c2ccc(-c3ccc(N(c4ccccc4)c4ccccc4)cc3)cc2)cc1 (stereo not drawn)	≥ 1 wt %
CCCCCCCCC1(CCCCCCCC)c2cc(N(c3ccccc3)c3ccc(-c4ccc(N(c5ccc(-c6ccccc6)cc5)c5ccc(-c6ccccc6)cc5)cc4)cc3)ccc2-c2ccc(N(c3ccccc3)c3ccc(-c4ccc(N(c5ccc(-c6ccccc6)cc5)c5ccc(-c6ccccc6)cc5)cc4)cc3)cc21	≥ 5 wt %

Which Solubility (toluene) value belongs to CCC(C)c1ccc(N(c2ccc(-c3ccc(-c4cccc(-c5cccc(-c6ccc(-c7ccc(N(c8ccc(-c9ccc(N(c%10ccc(-c%11ccccc%11)cc%10)c%10ccc(-c%11ccccc%11)cc%10)cc9)cc8)c8ccc(C(C)CC)cc8)cc7)cc6)c5)c4)cc3)cc2)c2ccc(-c3ccc(N(c4ccc(-c5ccccc5)cc4)c4ccc(-c5ccccc5)cc4)cc3)cc2)cc1 (stereo not drawn) ? ≥ 1 wt %

Which Solubility (toluene) value belongs to CCC(C)c1ccc(N(c2ccc(-c3ccc(N(c4ccccc4)c4ccc5c(c4)C(C)(C)c4ccccc4-5)cc3)cc2)c2ccc(-c3cccc(-c4ccc(N(c5ccc(-c6ccc(N(c7ccccc7)c7ccc8c(c7)C(C)(C)c7ccccc7-8)cc6)cc5)c5ccc(C(C)CC)cc5)cc4)c3)cc2)cc1 (stereo not drawn) ? ≥ 1 wt %

###

# ASSAY COMMENT: Solubility in toluene
# Type: physicochemical
# CONDITION CONTEXT: toluene; soluble in an amount of ... or more
PROPERTY LABEL: Solubility (toluene)

c1ccc(N(c2ccc(-c3ccc(N(c4ccccc4)c4cccc5ccccc45)cc3)cc2)c2ccc(-c3cccc(-c4cccc(-c5ccc(N(c6ccccc6)c6ccc(-c7ccc(N(c8ccccc8)c8cccc9ccccc89)cc7)cc6)cc5)c4)c3)cc2)cc1 ≥ 1 wt %

Which Solubility (toluene) value belongs to `CC1(C)c2ccccc2-c2ccc(N(c3ccccc3)c3ccc(-c4ccc(N(c5ccccc5)c5ccc(-c6cccc(-c7cccc(-c8ccc(N(c9ccccc9)c9ccc(-c%10ccc(N(c%11ccccc%11)c%11ccc%12c(c%11)C(C)(C)c%11ccccc%11-%12)cc%10)cc9)cc8)c7)c6)cc5)cc4)cc3)cc21` ? ≥ 1 wt %
